Test system OVCAR-5, GI50 listed for each of the molecules.

Below are worked cases with known answers.
> print(dat)
                                 cpd.smiles  system.under.test  observed.measurement
1  COc1ccc(Nc2ncccc2C(=O)NCc2cn(Cc3cccc(Oc4ccccc4)c3)nn2)c(OC)c1            OVCAR-5               8.34 µM
2  O=C(NCc1cn(Cc2cccc(Oc3ccccc3)c2)nn1)c1cccnc1Nc1ccc(F)cc1            OVCAR-5               4.23 µM
3  COc1ccc(Nc2ncccc2C(=O)NCc2cn(Cc3cccc(Oc4ccccc4)c3)nn2)cc1            OVCAR-5              ≥ 100 µM
4  COc1cc(Nc2ncccc2C(=O)NCc2cn(Cc3cccc(Oc4ccccc4)c3)nn2)cc(OC)c1            OVCAR-5              ≥ 100 µM

// next entry
Short answer on OVCAR-5 for `O=C(NCc1cn(Cc2cccc(Oc3ccccc3)c2)nn1)c1cccnc1NCc1ccc(Cl)cc1` , GI50: 5.62 µM

* * *

Item-by-item account of melting point

Below are worked cases with known answers.
> print(dat)
                                 cpd.smiles  observed.measurement
1  COc1cc(Nc2ncccc2C(=O)NCc2cn(Cc3cccc(Oc4ccccc4)c3)nn2)cc(OC)c1         123 to 125 °C
2  O=C(NCc1cn(Cc2cccc(Oc3ccccc3)c2)nn1)c1cccnc1Nc1ccc(Br)cc1         160 to 162 °C
3  COc1ccc(Nc2ncccc2C(=O)NCc2cn(Cc3cccc(Oc4ccccc4)c3)nn2)c(OC)c1         127 to 129 °C
4  O=C(NCc1cn(Cc2cccc(Oc3ccccc3)c2)nn1)c1cccnc1NCc1ccc(Cl)cc1         209 to 211 °C
5  O=C(NCc1cn(Cc2cccc(Oc3ccccc3)c2)nn1)c1cccnc1Nc1cccc(F)c1         130 to 132 °C

Recorded melting point (molecule `COc1cc(Cn2cc(CNC(=O)c3cccnc3Nc3ccc(OC)cc3OC)nn2)cc(OC)c1` ): 147 to 149 °C

Recorded melting point (molecule `O=C(NCc1cn(Cc2cccc(Oc3ccccc3)c2)nn1)c1cccnc1Nc1ccc(Cl)cc1` ): 127 to 129 °C

Recorded melting point (molecule `O=C(NCc1cn(Cc2cccc(Oc3ccccc3)c2)nn1)c1cccnc1Nc1ccccc1` ): 124 to 126 °C

* * *

Item-by-item account of GI50
# System: UO-31
# METHOD_DESCRIPTION: NCI sixty human tumor cell line screen, Renal panel
# Type: cell-based
# STUDY_CONDITIONS: UO-31, Renal, NCI protocol
Form entry: value (µM) — number only.

Below are worked cases with known answers.
> print(dat)
                                 cpd.smiles  value.units  observed.measurement
1  O=C(NCc1cn(Cc2cccc(Oc3ccccc3)c2)nn1)c1cccnc1Nc1ccccc1           µM                  86.3
2  COc1ccc(Nc2ncccc2C(=O)NCc2cn(Cc3cccc(Oc4ccccc4)c3)nn2)cc1           µM                  5.25
3  COc1ccc(Nc2ncccc2C(=O)NCc2cn(Cc3cccc(Oc4ccccc4)c3)nn2)c(OC)c1           µM                  8.06

Recorded GI50 (molecule `O=C(NCc1cn(Cc2cccc(Oc3ccccc3)c2)nn1)c1cccnc1NCc1ccc(Cl)cc1` ): 3

Recorded GI50 (molecule `COc1cc(Nc2ncccc2C(=O)NCc2cn(Cc3cccc(Oc4ccccc4)c3)nn2)cc(OC)c1` ): 5.25

Recorded GI50 (molecule `O=C(NCc1cn(Cc2cccc(Oc3ccccc3)c2)nn1)c1cccnc1Nc1ccc(F)cc1` ): 3

Values were extracted from patent US9309225B2.
